Molecular target: T1, JCV T-ag OBD wt (JC virus (JCV), UniProt P03072 132-261)
T1 sequence: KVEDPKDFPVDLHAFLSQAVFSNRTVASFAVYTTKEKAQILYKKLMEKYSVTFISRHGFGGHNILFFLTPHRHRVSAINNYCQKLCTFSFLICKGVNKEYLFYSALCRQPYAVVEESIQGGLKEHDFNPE
Experiment: fluorescence anisotropy; ITC: 10 mM Na phosphate pH 7.0, 50 mM NaCl, 5 mM DTT; anisotropy: 20 mM Hepes pH 7.4, 50 mM NaCl, 0.01% NP40, 0.1 mM DTT, 15 nM probe; temperature not stated
Details: protein: recombinant; tags: expressed from pGEX1λT (GST vector); label: 5' fluorescein (six-carbon linker) on one strand
Recorded endpoint: Kd

> print(dat)
                                     binder  reading
1  TBS probe, single GAGGC (dsDNA) DNA 1: CCGAGGCCATTCTGAGAATTGAGC DNA 2: GCTCAATTCTCAGAATGGCCTCGG    93 nM

All figures here come from paper PMC4703215.
